Origin of measurements: ChEMBL document CHEMBL1139062

Measured inhibition, listed per entry.
- Target of assay: Integrin alpha-V/beta-3 (Homo sapiens) (UniProt P05106+P06756)
- Measurement notes: Displacement of [125I]echistatin from integrin alpha-V-beta-3 receptor at 10 uM
- Assay type: protein-complex assay
Write the value in % as a bare number.

INSERT INTO results (molecule, reading) VALUES
  ('CC12CC/C=C\CC(NC1=O)C(=O)N[C@H](CCCNC(=N)N)C(=O)NCC(=O)N[C@@H](CC(=O)O)C(=O)N2Cc1ccccc1 (stereo in doubt; 2b)', 52);

Ask: Give the measured inhibition of CC12CC/C=C\CC(NC1=O)C(=O)N[C@H](CCCNC(=N)N)C(=O)NCC(=O)N[C@@H](CC(=O)O)C(=O)N2Cc1ccccc1 (stereo in doubt; 2a) .
Reply: 48

Ask: // returns reported inhibition for input CC12CC/C=C\CC(NC1=O)C(=O)N[C@H](CCCNC(=N)N)C(=O)NCC(=O)N[C@@H](CC(=O)O)C(=O)N2 (stereo in doubt; 3b)
Reply: 62

Ask: inhibition for CC12CC/C=C\CC(NC1=O)C(=O)N[C@H](CCCNC(=N)N)C(=O)NCC(=O)N[C@@H](CC(=O)O)C(=O)N2 (stereo in doubt; 3a) ?
Reply: 62
